Target: Adenosine receptor A3 (Homo sapiens)
Test: Displacement of [3H]-MRE-3008-F20 from human adenosine A3 receptor expressed in CHO cell membranes at 10 uM by scintillation counting analysis relative to control
attribute_measured: inhibition (%)
Field: numeric (%). Do not append units.

Solved entries:
[[record]]
smiles_record = "CC(C)(C)Cc1c(-c2ccc(F)cc2F)sc(N)c1C(=O)c1ccc(Cl)cc1"
tgt = "Adenosine receptor A3 (Homo sapiens)"
attribute_measured = "inhibition"
unit_text = "%"
recorded_value = 1

[[record]]
smiles_record = "CC(C)(C)Cc1c(Br)sc(N)c1C(=O)c1cccc(C(F)(F)F)c1"
tgt = "Adenosine receptor A3 (Homo sapiens)"
attribute_measured = "inhibition"
unit_text = "%"
recorded_value = 4


Next compound, please.
[in] Request the reported inhibition associated with `Cc1c(-c2ccccc2)sc(N)c1C(=O)c1ccc(Cl)cc1`
[out] 1

---

Target: Adenosine receptor A1 (Homo sapiens) (UniProt P30542)
Assay: Potentiation of [3H]CCPA binding to human adenosine A1 receptor expressed in CHO cell membranes at 10 uM after 90 mins relative to [3H]CCPA-treated control
Heads up, the class ranges for fold change (FC) are category 1: < 4; category 2: ≥ 4 and < 6; category 3: ≥ 6

Below, 6 molecules whose answers are already recorded.
[[record]]
smiles_record = "Cc1noc(C)c1-c1sc(N)c(C(=O)c2ccc(Cl)cc2)c1CC(C)(C)C"
discrete_label = "category 1"

[[record]]
smiles_record = "CC(C)(C)Cc1c(-c2c(F)cccc2F)sc(N)c1C(=O)c1ccc(Cl)cc1"
discrete_label = "category 2"

[[record]]
smiles_record = "Nc1sc(-c2ccccc2)c(-c2ccccc2)c1C(=O)c1ccc(Cl)cc1"
discrete_label = "category 1"

[[record]]
smiles_record = "CC(C)(C)Cc1c(-c2ccccc2)sc(N)c1C(=O)c1ccc(Cl)cc1"
discrete_label = "category 3"

[[record]]
smiles_record = "CC(C)Cc1csc(N)c1C(=O)c1ccc(Cl)cc1"
discrete_label = "category 1"

[[record]]
smiles_record = "CC(C)(C)Cc1csc(N)c1C(=O)c1cccc(Cl)c1"
discrete_label = "category 2"


As a next step, examine the molecule that follows.
[in] In plain terms, what class is `CC(C)(C)Cc1c(-c2ccccc2)sc(N)c1C(=O)c1cccc(Cl)c1` ?
[out] category 3

---

Target: Adenosine receptor A1 (Homo sapiens)
Sequence (whole entry): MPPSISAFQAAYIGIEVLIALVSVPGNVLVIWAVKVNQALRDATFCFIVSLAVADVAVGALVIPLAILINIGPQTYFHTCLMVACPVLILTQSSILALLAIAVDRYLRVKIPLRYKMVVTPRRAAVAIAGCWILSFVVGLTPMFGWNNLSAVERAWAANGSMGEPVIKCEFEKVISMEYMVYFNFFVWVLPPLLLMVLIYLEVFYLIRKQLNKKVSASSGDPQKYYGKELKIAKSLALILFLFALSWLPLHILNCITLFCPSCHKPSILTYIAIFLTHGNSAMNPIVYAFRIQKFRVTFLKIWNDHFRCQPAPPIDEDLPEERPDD
Test: Potentiation of CCPA-induced displacement of [3H]-DPCPX from human adenosine A1 receptor expressed in CHO cell membranes at 10 uM after 90 mins relative to CCPA-treated control
attribute_measured: fold change (FC)
Number, no unit, nothing else.

Solved entries:
[[record]]
smiles_record = "COc1cccc(-c2sc(N)c(C(=O)c3ccc(Cl)cc3)c2CC(C)(C)C)c1"
attribute_measured = "fold change (FC)"
recorded_value = 5.8

[[record]]
smiles_record = "CC(C)(C)Cc1c(-c2ccc(Cl)cc2)sc(N)c1C(=O)c1ccc(Cl)cc1"
attribute_measured = "fold change (FC)"
recorded_value = 4

[[record]]
smiles_record = "CC(C)(C)Cc1c(Br)sc(N)c1C(=O)c1ccc(Cl)c(Cl)c1"
attribute_measured = "fold change (FC)"
recorded_value = 4

[[record]]
smiles_record = "CC(C)(C)Cc1c(Br)sc(N)c1C(=O)c1ccc(Cl)cc1"
attribute_measured = "fold change (FC)"
recorded_value = 4.5

[[record]]
smiles_record = "CC(C)(C)Cc1c(-c2ccccc2)sc(N)c1C(=O)c1ccccc1Cl"
attribute_measured = "fold change (FC)"
recorded_value = 3.9


[in] Provide value of fold change (FC) for this record tested with Adenosine receptor A1 (Homo sapiens): `CC(C)(C)Cc1c(-c2ccccc2)sc(N)c1C(=O)c1ccc(Cl)c(Cl)c1`
[out] 4.8

[in] // next record `CC(C)(C)Cc1c(Br)sc(N)c1C(=O)c1cccc(C(F)(F)F)c1`
[out] 3

[in] // next record `CC(C)(C)Cc1c(-c2ccc(F)cc2F)sc(N)c1C(=O)c1ccc(Cl)cc1`
[out] 3.6

[in] // next record `Cc1cccc(-c2sc(N)c(C(=O)c3ccc(Cl)cc3)c2CC(C)(C)C)c1`
[out] 4.1

[in] // next record `CC(C)(C)Cc1c(-c2ccc(OC(F)(F)F)cc2)sc(N)c1C(=O)c1ccc(Cl)cc1`
[out] 4.6

[in] // next record `CC(C)(C)Cc1c(-c2ccncc2)sc(N)c1C(=O)c1ccc(Cl)cc1`
[out] 2.8

[in] // next record `CC(C)(C)Cc1c(-c2cc(F)ccc2F)sc(N)c1C(=O)c1ccc(Cl)cc1`
[out] 3.4
